Where these numbers come from: paper PMC5418314

test: Phase I plasma pharmacokinetics; type: in vivo, human; details: human, plasma, iv, 6.2 mg/kg, Cohort 6: 6.2 mg/kg; N = 6; 90-min IV infusion; Cycle 1 Day 3; plasma LC-MS; read-out: Time to peak plasma concentration, Mean (SD)
Ends that are not written are not given here.

residue_string | Tmax [min]
KEFLHPSKVDLPR [SOR-C13] | 27.7

====

assay: Phase I plasma pharmacokinetics; format: in vivo, human; details: human, plasma, iv, 2.75 mg/kg, Cohort 4: 2.75 mg/kg; N = 6; 90-min IV infusion; Cycle 1 Day 1; plasma LC-MS; read-out: Time to peak plasma concentration, Mean (SD)
Ends that are not written are not given here.

residue_string | Tmax, min
KEFLHPSKVDLPR [SOR-C13] | 39.9

====

test: Phase I plasma pharmacokinetics; type: in vivo, human; conditions: human, plasma, iv, 4.13 mg/kg, Cohort 5: 4.13 mg/kg; N = 3; 90-min IV infusion; Cycle 1 Day 10; plasma LC-MS; read-out: AUCtau, Median
Ends that are not written are not given here.

residue_string | AUC(0-t)
KEFLHPSKVDLPR [SOR-C13] | 324 ng·h/mL

====

test: Phase I plasma pharmacokinetics; assay type: in vivo, human; conditions: human, plasma, iv, 2.75 mg/kg, Cohort 4: 2.75 mg/kg; N = 6; 90-min IV infusion; Cycle 1 Day 8; plasma LC-MS; read-out: AUCtau, Mean (SD)
Ends that are not written are not given here.

residue_string | AUC(0-t) / µg·h/mL
KEFLHPSKVDLPR [SOR-C13] | 0.215

====

Experiment: Phase I plasma pharmacokinetics
Assay type: in vivo, human
Conditions: human, plasma, iv, 2.75 mg/kg, Cohort 4: 2.75 mg/kg; N = 6; 90-min IV infusion; Cycle 1 Day 3; plasma LC-MS; read-out: Peak plasma concentration, Mean (SD)
Experimental: Blood samples were taken on Days 1, 3, 8 and 10 of Cycle 1 to assess the pharmacokinetic (PK) profile of SOR-C13 at the various doses used. Plasma samples for the IV 20 min infusion were taken at pre-infusion, 5, 15 min after the start of infusion and post-infusion at 2, 5, 10 and 30 min and 1, 4 h. Plasma samples for SOR-C13 analysis for the 90 min infusion were taken pre-infusion, at 5, 15 and 45 min after the start of infusion, and at 2, 5, 10 and 30 min post-infusion. […]
Ends that are not written are not given here.

residue_string | Cmax, ng/mL
KEFLHPSKVDLPR [SOR-C13] | 374

====

experiment: Phase I plasma pharmacokinetics; assay type: in vivo, human; details: human, plasma, iv, 2.75 mg/kg, Cohort 4: 2.75 mg/kg; N = 6; 90-min IV infusion; Cycle 1 Day 10; plasma LC-MS; read-out: AUCtau, Mean (SD)
Ends that are not written are not given here.
readout_kind: AUC(0-t) (ng·h/mL)

residue_string | result_number
KEFLHPSKVDLPR [SOR-C13] | 274

====

Assay: Phase I plasma pharmacokinetics
Format: in vivo, human
Settings: human, plasma, iv, 4.13 mg/kg, Cohort 5: 4.13 mg/kg; N = 3; 90-min IV infusion; Cycle 1 Day 1; plasma LC-MS; read-out: Peak plasma concentration, Mean (SD)
Description: Blood samples were taken on Days 1, 3, 8 and 10 of Cycle 1 to assess the pharmacokinetic (PK) profile of SOR-C13 at the various doses used. Plasma samples for the IV 20 min infusion were taken at pre-infusion, 5, 15 min after the start of infusion and post-infusion at 2, 5, 10 and 30 min and 1, 4 h. Plasma samples for SOR-C13 analysis for the 90 min infusion were taken pre-infusion, at 5, 15 and 45 min after the start of infusion, and at 2, 5, 10 and 30 min post-infusion. […]
Ends that are not written are not given here.

residue_string | unit_abbreviation | Cmax
KEFLHPSKVDLPR [SOR-C13] | µg/mL | 0.139
